System: HOP-62 NSCLC
Assay: NCI-60 one-dose screen, 48 h (100 = growth as untreated, 0 = no growth, -100 = all killed)
Settings: 10 µM unless noted
About 83,000 compounds went through this panel and 20% of them were active in at least one assay; those are over-represented in the sample as a whole.
// growth lookup, one value per entry

{"molecule": "Cc1ccc2nc(-c3ccc(C(=O)NNC(=S)Nc4ccccc4)cc3)[nH]c2c1", "assayedTarget": "HOP-62 NSCLC", "growth, %": 95.3}
{"molecule": "COC(=O)C(Cc1ccccc1)NC(=O)c1ccc(NC(=O)c2[nH]c(C)c(Cl)c2Cl)c(OC(C)C)c1 (centres undefined)", "assayedTarget": "HOP-62 NSCLC", "growth, %": 90.3}
{"molecule": "C=CN(C(=O)N1CCN(c2cc3c(cc2F)c(=O)c(C(=O)O)cn3C2CC2)CC1)c1nc(-c2ccc(OC)cc2)cs1", "assayedTarget": "HOP-62 NSCLC", "growth, %": 18.5}
{"molecule": "Cc1nn(-c2cc(NC3CCC(O)CC3)c3c(=O)[nH]c(CCC(F)(F)F)cc3c2)c2c1C(=O)CC(C)(C)C2 (centres undefined)", "assayedTarget": "HOP-62 NSCLC", "growth, %": 44}

* * *

Test system: SNB-75 CNS
Assay: NCI-60 one-dose screen, 48 h (100 = growth as untreated, 0 = no growth, -100 = all killed)
Details: 10 µM unless noted
Compounds without any hit were thinned out: in the full panel of roughly 83,000, 20% have a hit.
Param threshold (70%) applies to growth; output condition met when value >= threshold, condition not met when value < threshold.

{"smilesRepresentation": "Cc1nc2ccccc2c(/C=C/c2ccccc2)c1C(=O)/C=C/c1ccccc1", "cat": "condition not met"}
{"smilesRepresentation": "CCOC(=O)c1c(C)nc2c(c1N)/C(=C/c1ccc(OC)cc1)C(=O)N2Cc1ccccc1", "cat": "condition met"}
{"smilesRepresentation": "Nc1c(C(=O)Nc2cccc(Cl)c2)sc2nc3c(cc12)CCCC3", "cat": "condition met"}
{"smilesRepresentation": "NC(=O)c1c(NC(=O)c2cccc(C(F)(F)F)c2)sc2c1CCC(=O)C2", "cat": "condition not met"}
{"smilesRepresentation": "Cc1nnc(-c2ccc3c(c2)nc(/C=C/c2ccccc2)n3C2CCCCC2)o1", "cat": "condition met"}
{"smilesRepresentation": "COc1cc(Cl)c(C)cc1NC(=O)c1cc2ccccc2cc1O", "cat": "condition not met"}
{"smilesRepresentation": "COc1cc(C(=O)c2c(-c3ccccc3)oc3c(OC)cccc23)cc(OC)c1OC", "cat": "condition not met"}
{"smilesRepresentation": "O=C(CSc1nc(-c2ccccc2)cc(=O)[nH]1)Nc1nc(-c2ccccc2)cs1", "cat": "condition met"}
{"smilesRepresentation": "COc1cccc(CCNc2ncnc3c2ncn3Cc2nnc3c4ccccc4c(Cl)nn23)c1", "cat": "condition not met"}
{"smilesRepresentation": "C=C(c1ccc(OC)c(/C=C/C(=O)c2ccc3c(c2)OCO3)c1)c1cc(OC)c(OC)c(OC)c1", "cat": "condition not met"}
{"smilesRepresentation": "COc1ccc(C(=S)N2CCN(c3ccc(Cl)cc3)CC2)cc1", "cat": "condition met"}
{"smilesRepresentation": "CN1CCN(CCCOc2cccc3nc(Nc4ccc(F)c(F)c4)ccc23)CC1", "cat": "condition not met"}
{"smilesRepresentation": "C=C(C)[C@@H]1CC[C@]2(C(N)=O)CC[C@]3(C)[C@H](CC[C@@H]4[C@@]5(C)CC[C@H](OCCC#N)C(C)(C)[C@@H]5CC[C@]43C)[C@@H]12", "cat": "condition met"}
